Heads up, these compounds all have pIC50 values measured for UniProt P04585.
One number for each entry, as −log10 of the molar value.

- CC(C)(C)NC(=O)[C@@H]1CCCC[C@@H]1C[C@@H](O)[C@H](Cc1ccccc1)NC(=O)[C@H](CC(N)=O)NC(=O)OCc1ccccc1 [Compound B]: 7.24
- CC(C)(C)NC(=O)[C@@H]1CCCC[C@H]1C[C@@H](O)[C@H](Cc1ccccc1)NC(=O)[C@H](CC#N)NC(=O)OCc1ccccc1 [Compound F]: 8.70
- CC(C)(C)NC(=O)[C@@H]1CCCC[C@H]1C[C@@H](O)[C@H](Cc1ccccc1)NC(=O)[C@H](CC(N)=O)NC(=O)OCc1ccccc1 [Compound A]: 8.70
- COC(=O)C[C@H](NC(=O)OCc1ccccc1)C(=O)N[C@@H](Cc1ccccc1)[C@H](O)C[C@@H]1CCCC[C@H]1C(=O)NC(C)(C)C [Compound E]: 8.72

Proceeding to the next compound to report its pIC50.
Request: Checklist item: pIC50 tested on UniProt P04585, entry CSC[C@H](NC(=O)OCc1ccccc1)C(=O)N[C@@H](Cc1ccccc1)[C@H](O)C[C@@H]1CCCC[C@H]1C(=O)NC(C)(C)C [Compound D] , value?
Response: 8.89
